studyTarget: DNA gyrase (Escherichia coli, UniProt P0AES4+P0AES6)
Sequence (P0AES4 2-875, one chain of several): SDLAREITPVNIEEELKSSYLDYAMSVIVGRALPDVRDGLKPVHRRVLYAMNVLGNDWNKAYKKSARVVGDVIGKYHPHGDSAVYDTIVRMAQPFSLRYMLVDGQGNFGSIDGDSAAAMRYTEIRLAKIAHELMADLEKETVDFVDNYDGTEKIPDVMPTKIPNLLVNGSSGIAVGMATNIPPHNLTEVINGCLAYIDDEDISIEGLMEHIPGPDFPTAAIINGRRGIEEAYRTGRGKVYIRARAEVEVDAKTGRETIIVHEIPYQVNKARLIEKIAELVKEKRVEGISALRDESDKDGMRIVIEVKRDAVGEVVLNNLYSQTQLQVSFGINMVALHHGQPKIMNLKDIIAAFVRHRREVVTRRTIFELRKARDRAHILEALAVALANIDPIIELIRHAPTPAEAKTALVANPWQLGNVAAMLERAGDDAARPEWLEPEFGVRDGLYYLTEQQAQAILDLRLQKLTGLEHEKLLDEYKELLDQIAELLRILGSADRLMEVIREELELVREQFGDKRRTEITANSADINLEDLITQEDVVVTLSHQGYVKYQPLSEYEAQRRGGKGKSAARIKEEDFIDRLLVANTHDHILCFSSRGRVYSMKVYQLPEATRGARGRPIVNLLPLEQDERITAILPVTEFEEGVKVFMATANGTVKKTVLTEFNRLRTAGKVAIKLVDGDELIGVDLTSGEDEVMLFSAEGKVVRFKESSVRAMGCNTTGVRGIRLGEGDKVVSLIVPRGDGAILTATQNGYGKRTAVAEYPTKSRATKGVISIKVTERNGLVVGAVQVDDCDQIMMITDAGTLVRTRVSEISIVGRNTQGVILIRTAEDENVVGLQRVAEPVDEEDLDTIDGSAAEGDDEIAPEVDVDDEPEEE
assayRemarks: DNA supercoiling gel assay
We begin with a simple list: items and their reported pIC50.
Please treat pIC50 as minus the base-10 logarithm of the molar concentration.

>>> print(df.to_string())
                                   molecule  observedproperty  quantitativeresult
0  COc1c2occc2c(OC)c2c(=O)cc(C)oc12 [khellin]             pIC50                5.50

Now consider the entry below.
Input line: State measured pIC50 of the molecule O=c1c(-c2ccc(O)cc2)coc2cc(O)ccc12 [daidzein] with DNA gyrase (Escherichia coli, UniProt P0AES4+P0AES6).
Output line: 6.78
